test system: E. coli ATCC25922; test: Bacterial growth minimal inhibitory concentration (CLSI broth microdilution); assay type: cell-based; conditions: Escherichia coli, ATCC25922; quinolone-sensitive strain; cation-adjusted Mueller-Hinton Broth
assay.metric: MIC (µg/mL)
Return type: number; implicit unit µg/mL.

COCCN(C)CC(O)c1ccc(C#Cc2cc3n(c2)C(=O)N(CC[C@](C)(C(=O)NO)S(C)(=O)=O)C3)cc1 (mixture of isomers) ... 1
CN1C[C@H](C#CC#Cc2cc3n(c2)C(=O)N(CC[C@](C)(C(=O)NO)S(C)(=O)=O)C3)[C@H]1CF ... 0.063
CN1C[C@@H](C#CC#Cc2cc3n(c2)C(=O)N(CC[C@](C)(C(=O)NO)S(C)(=O)=O)C3)C[C@@H]1CO (single isomer, unassigned) ... 1
C[C@@](CCN1Cc2cc(C#CC#CC3CCN(C4COC4)C3)cn2C1=O)(C(=O)NO)S(C)(=O)=O (stereo partly drawn) ... 1

GET /value?item= C[C@@](CCN1Cc2cc(C#Cc3ccc(CN4CC(CO)OC4=O)cc3)cn2C1=O)(C(=O)NO)S(C)(=O)=O (mixture of isomers) &field=MIC returns 1

Record summary for [2H]C([2H])([2H])S(=O)(=O)[C@](C)(CCN1Cc2cc(C#CC#CC3CN(CCO)C3)cn2C1=O)C(=O)NO : reported MIC = 1

* * *

Known MIC of a selection of compounds
tested on: E. coli ATCC25922; assay: Bacterial growth minimal inhibitory concentration (CLSI broth microdilution); type: cell-based; conditions: Escherichia coli, ATCC25922; quinolone-sensitive strain; cation-adjusted Mueller-Hinton Broth
The reply should be a number in µg/mL, with the unit left off.

C[C@@](CCN1Cc2cc(C#CC#C[C@H]3C[C@H](CO)N(C4COC4)C3)cn2C1=O)(C(=O)NO)S(C)(=O)=O ... 4
C[C@@](CCN1Cc2cc(C#Cc3ccc(CN4CC5(COC5)C4)cc3)cn2C1=O)(C(=O)NO)S(C)(=O)=O ... 0.25
C[C@@](CCN1Cc2cc(C#CC#C[C@@H]3C[C@H](F)CN3)cn2C1=O)(C(=O)NO)S(C)(=O)=O.Cl ... 4
CN1CCC(C)(C#CC#Cc2cc3n(c2)C(=O)N(CC[C@](C)(C(=O)NO)S(C)(=O)=O)C3)C1 (mixture of isomers) ... 2
C[C@@](CCN1Cc2cc(C#CC#CC3CN(CC(F)F)C3)cn2C1=O)(C(=O)NO)S(C)(=O)=O ... 0.063
C[C@@](CCN1Cc2cc(C#CC#C[C@H]3C[C@@H]3[C@@H](O)CO)cn2C1=O)(C(=O)NO)S(C)(=O)=O ... 0.25

Consider C[C@@](CCN1Cc2cc(C#Cc3ccc(CN4CCC(N)C(F)(F)C4)cc3)cn2C1=O)(C(=O)NO)S(C)(=O)=O (some centres unmarked) . Its measured MIC is 0.5

The measured MIC associated with C[C@@](CCN1Cc2cc(C#CC#C[C@@H]3C[C@H]3CN3CCOCC3)cn2C1=O)(C(=O)NO)S(C)(=O)=O reads 0.25

The compound listed as CN1CCN(C(=O)OCC#CC#Cc2cc3n(c2)C(=O)N(CC[C@](C)(C(=O)NO)S(C)(=O)=O)C3)CC1 has a reported MIC of 1

Reported MIC for CN1CCC(C#CC#Cc2cc3n(c2)C(=O)N(CC[C@](C)(C(=O)NO)S(C)(=O)=O)C3)CC1 was 4
